Parameter IC50: see the listing below.
# Target of assay: acetolactate synthase (ALS), resistant enzyme from R-XANST (Xanthium sp.)
# Construct: mature chloroplast form
# Sequence (Q41716 78-648, change not shown): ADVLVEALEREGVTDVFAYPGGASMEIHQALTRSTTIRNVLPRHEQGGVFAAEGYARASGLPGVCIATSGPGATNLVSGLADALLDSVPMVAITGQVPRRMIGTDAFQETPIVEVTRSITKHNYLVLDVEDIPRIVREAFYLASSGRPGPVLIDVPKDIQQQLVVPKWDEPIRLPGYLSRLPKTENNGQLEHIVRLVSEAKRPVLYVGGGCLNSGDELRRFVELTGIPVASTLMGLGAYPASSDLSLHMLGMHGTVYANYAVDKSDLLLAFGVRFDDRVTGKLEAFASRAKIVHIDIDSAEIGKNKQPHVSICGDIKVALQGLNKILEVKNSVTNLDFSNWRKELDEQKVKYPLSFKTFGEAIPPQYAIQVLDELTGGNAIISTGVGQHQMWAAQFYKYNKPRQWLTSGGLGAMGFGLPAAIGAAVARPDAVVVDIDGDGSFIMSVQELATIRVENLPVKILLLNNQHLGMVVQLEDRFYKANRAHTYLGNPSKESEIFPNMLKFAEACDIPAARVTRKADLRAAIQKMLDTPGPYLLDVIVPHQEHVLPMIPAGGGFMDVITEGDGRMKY
# Test name: ALS enzymatic evaluation, resistant enzyme isolated from R-XANST
# Assay type: biochemical
# Conditions: ALS from R-XANST leaves, 40% ammonium sulfate fraction; read-out: I50 (M) Resistant
Please respond with the number in M and leave the unit unwritten.

> print(dat)
                                   compound  recorded.metric  experimental.result
1  COc1cc(OC)nc(C(=O)c2c(Cl)ccc(Cl)c2C(=O)O)n1 [Di-Cl benzoate]             IC50               0.0006

Input CCc1cnc(C2=NC(C)(C(C)C)C(=O)N2)c(C(=O)O)c1 (single isomer, unassigned; (+)) [Imazethapyr] , output reported IC50.
0.0001

Input CC(C)C[C@H](N)C(=O)O [Leucine] , output reported IC50.
0.001

Input Cc1ccn2nc(S(=O)(=O)Nc3c(F)cccc3F)nc2n1 [Broadstrike] , output reported IC50.
0.0006

Input COc1nc(C)nc(NC(=O)NS(=O)(=O)c2ccccc2Cl)n1 [Chlorsulfurson] , output reported IC50.
5e-05

Input CC(C)C1(C)N=C(c2nc3ccccc3cc2C(=O)O)NC1=O (stereo not drawn) [Imazaquin] , output reported IC50.
0.0001
